property.label: melting point

Example compounds with recorded melting point:
Query: Fill in the blank: the reported melting point of Cn1nc(C(=O)NCc2ccc(Cl)cc2)c(=O)c2cc(C#CCO)ccc21 [Example 2] is ____.
Response: 229 to 231 °C

Query: Fill in the blank: the reported melting point of Cn1nc(C(=O)NCc2ccc(Cl)cc2)c(=O)c2cc(CO)ccc21 [Example 4] is ____.
Response: 203 to 205 °C

Query: Fill in the blank: the reported melting point of Cn1nc(C(=O)NCc2ccc(Cl)cc2)c(=O)c2cc(I)ccc21 [Example 1] is ____.
Response: 194 to 195 °C

Query: Fill in the blank: the reported melting point of Cn1nc(C(=O)NCc2ccc(Cl)cc2)c(=O)c2cc(C#CCCO)ccc21 [Example 3] is ____.
Response: 227 to 229 °C

Proceed to the following item.
Query: Fill in the blank: the reported melting point of Cn1nc(C(=O)NCc2ccc(Cl)cc2)c(=O)c2cc(CN3CCOCC3)ccc21 [Example 5] is ____.
Response: 190 to 192 °C

###

# tgt: HCMV polymerase (Human cytomegalovirus, UniProt P08546)
# Sequence (P08546 whole entry): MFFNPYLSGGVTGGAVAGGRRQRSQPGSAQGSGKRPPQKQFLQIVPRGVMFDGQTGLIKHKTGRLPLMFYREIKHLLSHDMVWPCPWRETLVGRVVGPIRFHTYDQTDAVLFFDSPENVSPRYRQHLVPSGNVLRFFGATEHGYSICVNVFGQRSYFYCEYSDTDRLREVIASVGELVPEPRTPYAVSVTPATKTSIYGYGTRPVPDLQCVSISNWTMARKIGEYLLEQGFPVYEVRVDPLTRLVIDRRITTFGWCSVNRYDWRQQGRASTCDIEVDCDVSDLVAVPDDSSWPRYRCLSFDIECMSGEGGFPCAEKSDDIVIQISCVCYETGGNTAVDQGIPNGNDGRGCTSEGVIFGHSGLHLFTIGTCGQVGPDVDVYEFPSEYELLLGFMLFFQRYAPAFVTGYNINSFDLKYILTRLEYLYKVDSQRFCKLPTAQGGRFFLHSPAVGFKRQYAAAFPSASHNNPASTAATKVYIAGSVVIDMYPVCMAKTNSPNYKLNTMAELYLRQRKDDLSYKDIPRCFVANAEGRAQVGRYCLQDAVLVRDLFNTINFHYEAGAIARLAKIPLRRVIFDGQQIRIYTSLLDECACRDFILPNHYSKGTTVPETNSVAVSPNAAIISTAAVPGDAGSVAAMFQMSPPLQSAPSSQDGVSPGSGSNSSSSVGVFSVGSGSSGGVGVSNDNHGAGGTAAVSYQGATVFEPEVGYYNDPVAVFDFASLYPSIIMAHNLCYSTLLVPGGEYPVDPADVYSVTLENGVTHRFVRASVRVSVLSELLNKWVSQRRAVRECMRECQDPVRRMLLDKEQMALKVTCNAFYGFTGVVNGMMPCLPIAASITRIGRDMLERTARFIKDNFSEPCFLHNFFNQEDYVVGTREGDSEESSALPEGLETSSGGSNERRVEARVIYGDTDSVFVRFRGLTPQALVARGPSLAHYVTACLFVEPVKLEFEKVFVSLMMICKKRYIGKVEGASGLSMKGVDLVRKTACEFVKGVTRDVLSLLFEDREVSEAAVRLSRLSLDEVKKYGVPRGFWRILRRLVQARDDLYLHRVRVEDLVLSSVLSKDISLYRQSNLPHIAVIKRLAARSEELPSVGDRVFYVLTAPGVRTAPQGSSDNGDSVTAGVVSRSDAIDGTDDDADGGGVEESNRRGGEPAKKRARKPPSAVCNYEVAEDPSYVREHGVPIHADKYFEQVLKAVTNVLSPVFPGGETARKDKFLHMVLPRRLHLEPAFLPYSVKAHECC
# assay.overview: HCMV polymerase assay (scintillation proximity assay, modified version)
# measurement.context: modified SPA assay; compounds diluted in 100% DMSO; 4.5 mM DTT
# Description: The HCMV polymerase assay is performed using a scintillation proximity assay (SPA) as described in several references, such as N. D. Cook, et al., Pharmaceutical Manufacturing International, pages 49-53 (1992); K. Takeuchi, Laboratory Practice, September issue (1992); U.S. Pat. No. 4,568,649 (1986); which are incorporated by reference herein. Reactions are performed in 96-well plates. […] Plates are incubated 10 min. at 37° C., then equilibrated to room temperature, and counted on a Packard Topcount. […]
Below, each of the molecules is paired with its reported pIC50 value.
The scale used: pIC50 is minus the common logarithm of the concentration in molar units.

Example molecules with recorded pIC50:
Query: Fill in the blank: the reported pIC50 of Cn1nc(C(=O)NCc2ccc(Cl)cc2)c(=O)c2cc(CN3CCOCC3)ccc21 is ____.
Response: 5.92

Query: Fill in the blank: the reported pIC50 of Cn1nc(C(=O)NCc2ccc(Cl)cc2)c(=O)c2cc(I)ccc21 is ____.
Response: 5.26

Query: Fill in the blank: the reported pIC50 of Cn1nc(C(=O)NCc2ccc(Cl)cc2)c(=O)c2cc(C#CCO)ccc21 is ____.
Response: 5.57

Query: Fill in the blank: the reported pIC50 of Cn1nc(C(=O)NCc2ccc(Cl)cc2)c(=O)c2cc(CO)ccc21 is ____.
Response: 4.78

Continuing:
Query: Fill in the blank: the reported pIC50 of Cn1nc(C(=O)NCc2ccc(Cl)cc2)c(=O)c2cc(C#CCCO)ccc21 is ____.
Response: 5.01
